Target: UniProtKB O60260
Sequence (O60260 1-465): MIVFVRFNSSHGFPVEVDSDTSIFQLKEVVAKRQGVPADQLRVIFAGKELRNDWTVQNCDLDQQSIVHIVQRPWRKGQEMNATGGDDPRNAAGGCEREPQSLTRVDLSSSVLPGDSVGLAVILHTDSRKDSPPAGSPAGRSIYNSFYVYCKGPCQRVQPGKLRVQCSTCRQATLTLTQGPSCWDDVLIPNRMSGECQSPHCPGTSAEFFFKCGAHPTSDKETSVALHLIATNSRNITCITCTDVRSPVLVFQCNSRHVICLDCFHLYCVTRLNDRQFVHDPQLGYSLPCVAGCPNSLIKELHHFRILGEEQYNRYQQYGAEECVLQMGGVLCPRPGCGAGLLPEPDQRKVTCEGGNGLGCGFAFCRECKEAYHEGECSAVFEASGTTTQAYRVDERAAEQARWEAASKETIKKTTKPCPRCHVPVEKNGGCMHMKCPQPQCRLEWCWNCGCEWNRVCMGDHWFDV
Experiment: Activity-Based Probe Assay using an Ubiquitin vinyl sulfone probe (TR-FRET)
Format: biochemical
Conditions: Parkin activation, HA-Ub-VS probe, heat activated Parkin; read-out: Probe Assay EC50 (μM) [Example 2]
value_type: EC50

Take a look at these entries with their results.
{"columns": ["compound_smiles", "measured_on", "EC50"],
 "data": [
  ["CCN(CC)c1cc(Nc2nc(NC(=O)c3ccccc3)nn2-c2ccccc2)ncn1", "UniProtKB O60260", "> 100 µM"],
  ["O=C(Nc1nc(NC(=O)c2ccco2)n(-c2ccccc2)n1)c1ccccc1", "UniProtKB O60260", "10.4 µM"],
  ["O=C(Nc1nc(Nc2nccc3ccccc23)n(-c2ccccc2)n1)c1ccccc1", "UniProtKB O60260", "> 100 µM"],
  ["O=C(Nc1nc(NC(=O)c2ccccc2)n(C2CCOCC2)n1)c1ccccc1", "UniProtKB O60260", "> 100 µM"],
  ["O=C(Nc1nc(Nc2ccncn2)n(-c2ccccc2)n1)c1ccccc1", "UniProtKB O60260", "> 100 µM"]
]}

stdin: What does the record list as EC50 for Cc1ccccc1C(=O)Nc1nc(NC(=O)c2ccccc2C)n(-c2cccnc2)n1 ?
stdout: > 100 µM

---

Molecular target: Parkin ligase (Homo sapiens, UniProt O60260)
Test: Activity-Based Probe Assay using an Ubiquitin vinyl sulfone probe (TR-FRET)
Assay type: biochemical
Conditions: Parkin activation, HA-Ub-VS probe, heat activated Parkin; read-out: Probe Assay EC50 (μM) [Example 2]
Source text: An Ubiquitin vinyl sulfone probe can be used that irreversibly binds to the active site cysteine of Parkin ligase. Covalent attachment of the probe to the Parkin can be monitored by TR-FRET. Candidate activator compounds can be identified by increasing the activity of Parkin ligase due to an increase in TR-FRET signal. […] Data Analysis: The Data can be read in CSV files. […]
value_type: EC50 (µM)
// units = µM; emit number, no label

{"columns": ["compound", "unit_text", "EC50"],
 "data": [
  ["O=C(Nc1nc(NC(=O)c2ccccc2)n(-c2ccccc2)n1)c1ccccc1 [Compound A]", "µM", 7]
]}

stdin: What does the record list as EC50 for O=C(Nc1nc(Nc2ncnc3ccccc23)n(-c2ccccc2)n1)c1ccccc1 [Compound L] ?
stdout: 1.8
